Target: recombinant human PAI-1 (Homo sapiens)
Test: PAI-1 inhibitory activity, Test Method A (tPA fluorogenic substrate, Tris buffer pH8.0, 37 C)
Conditions: 50% inhibitory concentration of PAI-1 activity, according to the aforementioned method
result-type: pIC50
Quick note: pIC50 values are minus log10 of concentrations in mol/L.

In the examples that follow, each entry is paired with its recorded pIC50.
CCOC1=NN(c2ccc([N+](=O)[O-])cc2)C(=O)C1=Cc1cc(/C=C/c2ccccc2)ccc1O
6.32
O=C(Nc1cccc(O)c1O)c1cc(C=C2SC(=O)N(Cc3ccc(Cl)c(Cl)c3)C2=O)ccc1O
6.68
CCOC1=NN(c2ccc([N+](=O)[O-])cc2)C(=O)C1=Cc1cc(O)c(O)cc1O
6.52
COc1cc(C=C2SC(=O)N(Cc3ccc(Cl)c(Cl)c3)C2=O)cc(C(=O)Nc2ccc(O)c(O)c2)c1O
6.24
O=C(Nc1ccc(CN2C(=O)SC(=Cc3cccc(O)c3O)C2=O)cc1)c1ccc(Oc2ccccc2)cc1
6.34
O=C1SC(=Cc2cc(O)c(O)c(O)c2)C(=O)N1Cc1ccc(Cl)c(Cl)c1
6.35
O=C1C(=Cc2ccc(O)c(O)c2)SC(=S)N1Cc1ccc(C(F)(F)F)cc1
6.24
O=C1SC(=Cc2cccc(O)c2O)C(=O)N1Cc1ccc(C(F)(F)F)cc1
6.44
CC(C)C1=NN(c2ccc(F)c(Cl)c2)C(=O)C1=Cc1cc(O)c(O)cc1O
6.30

Now turn to the next compound.
Ask: What value of pIC50 has been recorded for this entry: `N=C(N)NCCC[C@H](N)C(=O)O.N=C(N)NCCC[C@H](N)C(=O)O.N=C(N)NCCC[C@H](N)C(=O)O.O=C1SC(=Cc2cc(O)c(O)c(O)c2)C(=O)N1Cc1ccc(Cl)c(Cl)c1`
Result: 6.27

----------
Molecular target: recombinant human PAI-1 (Homo sapiens, UniProt P05121)
Sequence (P05121 24-402): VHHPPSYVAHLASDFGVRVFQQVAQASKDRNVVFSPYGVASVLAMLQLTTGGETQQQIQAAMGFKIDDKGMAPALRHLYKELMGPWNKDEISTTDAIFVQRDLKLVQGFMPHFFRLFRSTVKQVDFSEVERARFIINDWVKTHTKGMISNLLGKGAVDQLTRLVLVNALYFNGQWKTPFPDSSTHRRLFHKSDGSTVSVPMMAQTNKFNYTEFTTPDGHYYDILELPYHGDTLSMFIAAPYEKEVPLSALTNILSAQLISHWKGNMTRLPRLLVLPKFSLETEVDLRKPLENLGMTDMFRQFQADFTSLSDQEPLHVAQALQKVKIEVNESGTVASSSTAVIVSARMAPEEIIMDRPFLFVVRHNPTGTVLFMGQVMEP
Test: PAI-1 inhibitory activity, Test Method A (tPA fluorogenic substrate, Tris buffer pH8.0, 37 C)
Type: biochemical
Details: 25 μM test compound; Test Method A
result-type: Inhibitory Ratio at 25 μM (%)

In the examples that follow, each entry is paired with its recorded Inhibitory Ratio at 25 μM (%).
CC1=NN(c2ccc(Cl)c(Cl)c2)C(=O)C1=Cc1cc(O)c(O)cc1O
>99%
O=C(Nc1ccc(O)nc1)c1cc(C=C2SC(=O)N(Cc3ccc(Cl)c(Cl)c3)C2=O)ccc1O
>99%
COc1ccc(-c2ccccc2)cc1NC(=O)c1cc(C=C2SC(=O)N(Cc3ccc(Cl)c(Cl)c3)C2=O)ccc1O
>99%

Now turn to the next compound.
Ask: What value of Inhibitory Ratio at 25 μM (%) has been recorded for this entry: `O=C(Nc1cc(C(F)(F)F)ccc1Cl)c1cc(C=C2SC(=O)N(Cc3ccc(Cl)c(Cl)c3)C2=O)cc(O)c1O`
Result: >99%

----------
Molecular target: recombinant human PAI-1 (Homo sapiens, UniProt P05121)
Experiment: PAI-1 inhibitory activity, Test Method A (tPA fluorogenic substrate, Tris buffer pH8.0, 37 C)
Assay type: biochemical
Details: test compound 25 μM; Test Method A
Measured Inhibitory Ratio at 25 μM (%) of individual entries

CCOC1=NN(c2ccc([N+](=O)[O-])cc2)C(=O)C1=Cc1cc(O)c(O)c(O)c1 [compound 132]
>99%
CC(C)(C)C1=NN(c2cc(Cl)cc(Cl)c2)C(=O)C1=Cc1cc(O)c(O)c(O)c1 [compound 139]
>99%

Now turn to the next compound.
Ask: # query: Inhibitory Ratio at 25 μM (%) | item CC(C)(C)c1cc(CN2C(=O)SC(=Cc3ccc(O)c(O)c3)C2=O)cc(C(C)(C)C)c1O [compound 14] | system: recombinant human PAI-1 (Homo sapiens, UniProt P05121)
Result: >99%

----------
Biological target: recombinant human PAI-1 (Homo sapiens, UniProt P05121)
Assay: PAI-1 inhibitory activity, Test Method A (tPA fluorogenic substrate, Tris buffer pH8.0, 37 C)
Assay type: biochemical
Conditions: 25 μM test compound; Test Method A
result-type: Inhibitory Ratio at 25 μM (%)

In the examples that follow, each entry is paired with its recorded Inhibitory Ratio at 25 μM (%).
COc1ccc(C(F)(F)F)cc1NC(=O)c1cc(C=C2SC(=O)N(Cc3ccc(Cl)c(Cl)c3)C2=O)ccc1O
>99%
N=C(N)NCCC[C@H](N)C(=O)O.N=C(N)NCCC[C@H](N)C(=O)O.O=C1SC(=Cc2ccc(O)c(O)c2)C(=O)N1Cc1ccc(Cl)cc1Cl
>99%
O=C1SC(=Cc2ccc(O)c(-c3ccc(O)c(O)c3)c2)C(=O)N1Cc1ccc(Cl)c(Cl)c1
>99%

Ask: What value of Inhibitory Ratio at 25 μM (%) has been recorded for this entry: `O=C(O)c1ccc(NC(=O)c2cc(C=C3SC(=O)N(Cc4ccc(Cl)c(Cl)c4)C3=O)ccc2O)cc1`
Result: >99%

Ask: And for `COc1cccc(NC(=O)c2cc(C=C3SC(=O)N(Cc4ccc(Cl)c(Cl)c4)C3=O)ccc2O)c1OC` ?
Result: >99%

Ask: And for `CC(C)C1=NN(c2cc(Cl)cc(Cl)c2)C(=O)C1=Cc1cc(O)c(O)cc1Br` ?
Result: >99%

Ask: And for `O=C1C(=Cc2cc(C=Cc3ccccc3)ccc2O)C(c2ccc(O)cc2)=NN1c1ccc(Cl)cc1` ?
Result: >99%

Ask: And for `O=C(Nc1cc(C=C2SC(=O)N(Cc3ccc(Cl)c(Cl)c3)C2=O)ccc1O)c1ccc(O)c(O)c1` ?
Result: >99%

Ask: And for `O=C1C(=Cc2cc(Br)ccc2O)C(c2ccc(O)cc2)=NN1c1ccc(Cl)cc1` ?
Result: >99%

Ask: And for `COc1ccc(C(C)(C)C)cc1NC(=O)c1cc(C=C2SC(=O)N(Cc3ccc(Cl)c(Cl)c3)C2=O)ccc1O` ?
Result: >99%

Ask: And for `O=C1SC(=Cc2cccc(O)c2O)C(=O)N1Cc1ccc(Nc2ccccc2)cc1` ?
Result: >99%

Ask: And for `O=C(Cc1cccc(Oc2ccccc2)c1)Nc1cccc(CN2C(=O)SC(=Cc3ccc(O)c(O)c3)C2=O)c1` ?
Result: >99%

----------
Target: recombinant human PAI-1 (Homo sapiens, UniProt P05121)
Test: PAI-1 inhibitory activity, Test Method A (tPA fluorogenic substrate, Tris buffer pH8.0, 37 C)
Format: biochemical
Details: test compound 25 μM; Test Method A
Measured Inhibitory Ratio at 25 μM (%) of individual entries

Ask: What value of Inhibitory Ratio at 25 μM (%) has been recorded for this entry: `O=C1SC(=Cc2ccc(O)c(O)c2)C(=O)N1Cc1cccc(Cl)c1`
Result: >99%

Ask: And for `O=C1C(=Cc2ccc(Cl)c(Cl)c2)C(c2ccccc2)=NN1c1cccc([N+](=O)[O-])c1` ?
Result: >99%

Ask: And for `O=C1SC(=Cc2ccc(O)cc2O)C(=O)N1Cc1ccc(Cl)c(Cl)c1` ?
Result: >99%

----------
Molecular target: recombinant human PAI-1 (Homo sapiens, UniProt P05121)
Test: PAI-1 inhibitory activity, Test Method A (tPA fluorogenic substrate, Tris buffer pH8.0, 37 C)
Assay type: biochemical
Settings: test compound 25 μM; Test Method A
Measured Inhibitory Ratio at 25 μM (%) of individual entries

COC(=O)c1cccc(-c2ccc(C=C3C(=O)N(c4ccc(F)cc4)N=C3O)o2)c1 [compound 160]
50%

Ask: What value of Inhibitory Ratio at 25 μM (%) has been recorded for this entry: CC1=NN(c2cccc(C(F)(F)F)c2)C(=O)C1=Cc1ccc(O)c(O)c1 [compound 113]
Result: 68%

Ask: And for O=C1C(=Cc2ccc(O)c(O)c2O)C(C(F)(F)F)=NN1c1cc(Cl)cc(Cl)c1 [compound 150] ?
Result: >99%

----------
Target: recombinant human PAI-1 (Homo sapiens, UniProt P05121)
Test: PAI-1 inhibitory activity, Test Method A (tPA fluorogenic substrate, Tris buffer pH8.0, 37 C)
Format: biochemical
Conditions: 25 μM test compound; Test Method A
result-type: Inhibitory Ratio at 25 μM (%)
Report the figure in % without appending any unit label.

In the examples that follow, each entry is paired with its recorded Inhibitory Ratio at 25 μM (%).
CCOC1=NN(c2ccc([N+](=O)[O-])cc2)C(=O)C1=Cc1c(O)cccc1O
95
O=C(Nc1cc(C(F)(F)F)ccc1Oc1ccc(O)cc1)c1cc(C=C2SC(=O)N(Cc3ccc(Cl)c(Cl)c3)C2=O)ccc1O
95
CC(C)C1=NN(c2cc(Cl)ccc2Cl)C(=O)C1=Cc1cc(O)c(O)cc1O
66

Now turn to the next molecule.
Ask: What value of Inhibitory Ratio at 25 μM (%) has been recorded for this entry: `COc1ccc(C)c(NC(=O)c2cc(C=C3SC(=O)N(Cc4ccc(Cl)c(Cl)c4)C3=O)ccc2O)c1`
Result: 87

Where these numbers come from: patent US20070276011A1
